species on record: Rattus norvegicus; experiment: DrugMatrix - Regimen: Daily Repeat; type: toxicity, organism-based, Sprague-Dawley; set-up: regimen Daily Repeat, gender Male, age 6-8 weeks; settings: in vivo, po, 0 mg/kg, 120 h, tissue Plasma, route oral GAVAGE, dose level Control, time 5 day, vehicle 100 % WATER
quantity.measured: POTASSIUM (MEQ/L)
Supply the numeric figure in MEQ/L, leaving out any unit text.

Here is how some compounds turned out for POTASSIUM.
compound.string	POTASSIUM / MEQ/L
CC(Cl)(Cl)Cl	6.11
CN1C(=O)OC(C)(C)C1=O	7.05

Briefly, POTASSIUM measured for "CCC1(c2ccccc2)C(=O)NC(=O)NC1=O" : 6

Briefly, POTASSIUM measured for "Cc1cn([C@H]2C=C[C@@H](CO)O2)c(=O)[nH]c1=O" : 6.07

The origin of these recorded values is ChEMBL document CHEMBL3885881.
